Biological target: T1, recombinant human IGSF8 extracellular domain tagged by a human Fc region (IGSF8-hFc) (human, UniProt Q969P0 28-579, biotin label in Examples 17, 18 and 28 (site not given))
T1 construct: also called IGSF8-Fc fusion protein; IGSF8-hFc-biotin; not shown: human Fc region
T1 sequence: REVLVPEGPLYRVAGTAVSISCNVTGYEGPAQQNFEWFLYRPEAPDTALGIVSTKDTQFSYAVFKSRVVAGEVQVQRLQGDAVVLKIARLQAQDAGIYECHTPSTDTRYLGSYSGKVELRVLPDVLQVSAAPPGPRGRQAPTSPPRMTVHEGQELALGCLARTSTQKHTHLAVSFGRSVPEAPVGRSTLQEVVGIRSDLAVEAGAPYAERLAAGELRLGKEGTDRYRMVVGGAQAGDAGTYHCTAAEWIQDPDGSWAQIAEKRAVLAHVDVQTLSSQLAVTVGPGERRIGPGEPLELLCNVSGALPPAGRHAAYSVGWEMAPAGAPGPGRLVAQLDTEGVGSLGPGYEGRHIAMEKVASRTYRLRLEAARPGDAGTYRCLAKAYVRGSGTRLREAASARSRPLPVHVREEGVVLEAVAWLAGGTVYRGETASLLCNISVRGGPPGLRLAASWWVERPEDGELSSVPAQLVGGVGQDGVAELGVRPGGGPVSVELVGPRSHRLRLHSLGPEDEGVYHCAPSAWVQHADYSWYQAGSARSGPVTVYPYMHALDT
Experiment: SPR, Ab captured
Each entry below carries its recorded kon.

Entry L1-13 (antibody, V domains shown) VH: QVQLVESGGGVVQPGRSLRLSCAASGFTFSTYGMHWVRQAPGKGLEWVAVIWDDGSYKYYGDSVKGRFTISRDNSKNTLYLQMNSLRAEDTAVYYCARDGSGWGYAFDIWGQGTMVTVSS VL: DIQLTQSPSSLSASVGDRVTITCQASQDISEYLNWYQHKPGKAPNPLVFDAPNLETGVPPRFSATGSGTDFSLTITSLQPEDFATYYCQQYDSFPYTFGQGTRLDIK : reported kon = ?
443000 M⁻¹ s⁻¹

Entry L2VH-R30S (antibody, V domains shown) VH: EVQLVESGGGLEQPGGSLRLSCAGSGFTFSDYAMTWVRQAPGKGLEWVSSISGSGGNTYYADSVKGRFTISRDNSKNTLYLQMNSLRAEDTAIYYCARGEYSSGWPSWFDPWGQGTLVTVSS VL: EIVLTQSPSSLSASVGDRVTISCRASRTVGTFLNWYQQRPGKPPQALILGVSILEGGVSSRFSGAGSGTEFSLTISSLQPEDIGTYYCQQSHDVPRTFGQGTKVDLR : reported kon = ?
11400 M⁻¹ s⁻¹

Next:
Entry L1-11 (antibody, V domains shown) VH: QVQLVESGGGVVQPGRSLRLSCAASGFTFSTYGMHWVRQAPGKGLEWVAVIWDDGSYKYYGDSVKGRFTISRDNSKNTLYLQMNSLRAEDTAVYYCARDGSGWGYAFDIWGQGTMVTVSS VL: DIQLTQSPSSLSASVGDRVTITCQASQDIEWALNWYQHKPGKAPNPLVFDAANLETGVPPRFSATGSGTDFSLTITSLQPEDFATYYCQQYDSFPYTFGQGTRLDIK : reported kon = ?
339000 M⁻¹ s⁻¹

Entry L1-21 (antibody, V domains shown) VH: QVQLVESGGGVVQPGRSLRLSCAASGFTFSTYGMHWVRQAPGKGLEWVAVIWDDGSYKYYGDSVKGRFTISRDNSKNTLYLQMNSLRAEDTAVYYCARDGSGWGYAFDIWGQGTLVTVSS VL: DIQLTQSPSSLSASVGDRVTITCQASQDIGPWLNWYQHKPGKAPKPLIYGSPNLETGVPSRFSGSGSGTDFTFTISSLQPEDIATYYCQQYDSFPYTFGQGTKVEIK : reported kon = ?
406000 M⁻¹ s⁻¹

Entry L1VL-Q24H (antibody, V domains shown) VH: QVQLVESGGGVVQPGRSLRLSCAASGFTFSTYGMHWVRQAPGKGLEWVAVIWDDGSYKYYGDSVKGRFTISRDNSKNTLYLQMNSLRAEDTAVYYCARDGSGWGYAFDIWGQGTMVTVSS VL: DIQLTQSPSSLSASVGDRVTITCHASQDISEYLNWYQHKPGKAPNPLVFDAANLETGVPPRFSATGSGTDFSLTITSLQPEDFATYYCQQYDSFPYTFGQGTRLDIK : reported kon = ?
53700 M⁻¹ s⁻¹

Entry L1VL-Y91F (antibody, V domains shown) VH: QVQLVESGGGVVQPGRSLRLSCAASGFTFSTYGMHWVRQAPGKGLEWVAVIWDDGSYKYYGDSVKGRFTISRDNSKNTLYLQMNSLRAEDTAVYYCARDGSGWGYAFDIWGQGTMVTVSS VL: DIQLTQSPSSLSASVGDRVTITCQASQDISEYLNWYQHKPGKAPNPLVFDAANLETGVPPRFSATGSGTDFSLTITSLQPEDFATYYCQQFDSFPYTFGQGTRLDIK : reported kon = ?
4500 M⁻¹ s⁻¹

Entry L1-32 (antibody, V domains shown) VH: QVQLVESGGGVVQPGRSLRLSCAASGFTFSTYGMHWVRQAPGKGLEWVAVIWDGGSYKYYGDSVKGRFTISRDNSKNTLYLQMNSLRAEDTAVYYCARDGSGWGYAFDIWGQGTLVTVSS VL: DIQLTQSPSSLSASVGDRVTITCQASQDIGPWLNWYQHKPGKAPKPLVFGSPNLETGVPSRFSASGSGTDFTLTISSLQPEDFATYYCQQYDSFPYTFGQGTKVEIK : reported kon = ?
312000 M⁻¹ s⁻¹

Entry L2-06 (antibody, V domains shown) VH: EVQLVESGGGLEQPGGSLRLSCAASGFTFRDYAMTWVRQAPGKGLEWVSSISGSGGSTYYADSVKGRFTISRDNSKNTLYLQMNSLRAEDTAIYYCARGEYSSGWPSWFDPWGQGTLVTVSS VL: DIQMTQSPSSLSASVGDRVTITCRASRTVGTFLNWYQQKPGKAPKALILGVSILEGGVPSRFSGSGSGTDFTLTISSLQLEDFATYYCQQSHDVPRTFGQGTKVEIK : reported kon = ?
45700 M⁻¹ s⁻¹

Entry L1-17 (antibody, V domains shown) VH: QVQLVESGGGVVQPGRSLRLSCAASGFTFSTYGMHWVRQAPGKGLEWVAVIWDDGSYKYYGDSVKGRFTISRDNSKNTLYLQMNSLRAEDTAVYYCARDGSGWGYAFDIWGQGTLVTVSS VL: DIQMTQSPSSLSASVGDRVTITCQASQDIGPWLNWYQQKPGKAPKLLIYDAPNLETGVPSRFSGSGSGTDFTFTISSLQPEDIATYYCQQYDSFPYTFGQGTKVEIK : reported kon = ?
318000 M⁻¹ s⁻¹

Entry L1VL-P46L (antibody, V domains shown) VH: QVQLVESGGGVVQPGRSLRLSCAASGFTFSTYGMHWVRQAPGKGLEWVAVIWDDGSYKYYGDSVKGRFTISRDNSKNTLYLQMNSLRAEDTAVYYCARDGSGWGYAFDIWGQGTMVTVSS VL: DIQLTQSPSSLSASVGDRVTITCQASQDISEYLNWYQHKPGKAPNLLVFDAANLETGVPPRFSATGSGTDFSLTITSLQPEDFATYYCQQYDSFPYTFGQGTRLDIK : reported kon = ?
27500 M⁻¹ s⁻¹

Source listed as patent US20230303695A1.
